# Subject Of Test: Mcl-1/Bim (Homo sapiens, UniProt Q07820)
# Sequence (Q07820 whole entry): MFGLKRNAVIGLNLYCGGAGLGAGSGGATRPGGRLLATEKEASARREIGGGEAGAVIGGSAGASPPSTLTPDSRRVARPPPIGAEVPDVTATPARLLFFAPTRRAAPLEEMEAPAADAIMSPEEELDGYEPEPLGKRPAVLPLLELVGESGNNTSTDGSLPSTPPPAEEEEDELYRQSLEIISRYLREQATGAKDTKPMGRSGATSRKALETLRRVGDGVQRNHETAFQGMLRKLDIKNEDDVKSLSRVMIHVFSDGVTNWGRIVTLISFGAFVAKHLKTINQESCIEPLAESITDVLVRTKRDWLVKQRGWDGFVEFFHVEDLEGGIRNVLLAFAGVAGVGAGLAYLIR
# Protocol: Mcl-1/Bim ELISA (GST-Mcl-1 binding to biotinylated Bim BH3 peptide)
# Test Conditions: Table 3-E structure VI; n ≥ 3; read-out: Mcl-1-Bim IC50 (average ± SEM)
pIC50: −log10 of the molar value.
Result Type: pIC50

>>> print(df.to_string())
                                   molecule                           subject_of_test  result_type  result
0  Cn1c(Cl)c(Cl)c(-n2c(C(=O)c3ccccc3O)cc(Cl)c2Cl)c1C(=O)c1ccccc1O [VI-12]  Mcl-1/Bim (Homo sapiens, UniProt Q07820)        pIC50  < 4.00

----------
pIC50 listing for selected compounds.
# Subject Of Test: Mcl-1/Bim (Homo sapiens, UniProt Q07820)
# Protocol: Mcl-1/Bim ELISA (GST-Mcl-1 binding to biotinylated Bim BH3 peptide)
# Test Conditions: Table 1; Mcl-1 at 10 nM; n ≥ 3; read-out: Mcl-1-Bim IC50 (average ± SEM)
pIC50: −log10 of the molar value.

Compound	Comparison Sign	pIC50
O=C(O)c1ccc(C(=O)c2cc(Cl)c3n2-c2c([nH]c(Cl)c2Cl)C(=O)c2ccc(C(=O)O)cc2O3)c(O)c1 [IV-4]	=	4.18
COC(=O)c1ccc(C(=O)c2cc(Cl)c3n2-c2c([nH]c(Cl)c2Cl)C(=O)c2ccc(C(=O)OC)cc2O3)c(O)c1 [IV-3]	=	5.37
O=C1c2ccc(O)cc2Oc2c(Cl)cc(C(=O)c3ccc(O)cc3O)n2-c2c1[nH]c(Cl)c2Cl [IV-2]	=	4.37
O=C(c1ccccc1O)c1[nH]c(Cl)c(Cl)c1-n1c(C(=O)c2ccccc2O)cc(Cl)c1Cl (racemic) [(±)-1, (±)-marinopyrrole A, reference compound]	=	5.05
O=C1c2ccc(OS(=O)(=O)C(F)(F)F)cc2Oc2c(Cl)cc(C(=O)c3ccc(OS(=O)(=O)C(F)(F)F)cc3O)n2-c2c1[nH]c(Cl)c2Cl [IV-1]	=	5.85
O=C1c2ccc(P(=O)(O)O)cc2Oc2c(Cl)cc(C(=O)c3ccc(P(=O)(O)O)cc3O)n2-c2c1[nH]c(Cl)c2Cl [IV-6]	<	4.00

----------
pIC50 listing for selected compounds.
# Subject Of Test: Mcl-1/Bim (Homo sapiens)
# Protocol: Mcl-1/Bim ELISA (GST-Mcl-1 binding to biotinylated Bim BH3 peptide)
# Test Conditions: read-out: IC50 to inhibit the binding of Mcl-1 to Bim
pIC50: −log10 of the molar value.

Compound	Comparison Sign	pIC50
O=C(O)Cn1cc(-c2ccc(C(=O)c3[nH]c(Cl)c(Cl)c3-n3c(C(=O)c4ccc(-c5cn(CC(=O)O)nn5)cc4O)cc(Cl)c3Cl)c(O)c2)nn1	=	4.78
CCc1ccc(C(=O)c2[nH]c(Cl)c(Cl)c2-n2c(C(=O)c3ccc(CC)cc3O)cc(Cl)c2Cl)c(O)c1	=	5.68
O=C(O)Cn1cc(-c2cc(O)c(C(=O)c3[nH]c(Cl)c(Cl)c3-n3c(C(=O)c4cc(Cl)c(-c5cn(CC(=O)O)nn5)cc4O)cc(Cl)c3Cl)cc2Cl)nn1	=	5.28
O=C(c1ccccc1O)c1[nH]c(Cl)c(Cl)c1-n1c(C(=O)c2ccccc2O)cc(Cl)c1Cl (racemic) [(±)-1, (±)-marinopyrrole A, reference compound]	=	5.05
O=C1c2ccc(P(=O)(O)O)cc2Oc2c(Cl)cc(C(=O)c3ccc(P(=O)(O)O)cc3O)n2-c2c1[nH]c(Cl)c2Cl	<	4.00
O=C(c1ccc(OS(=O)(=O)C(F)(F)F)cc1O)c1[nH]c(Cl)c(Cl)c1-n1c(C(=O)c2ccc(OS(=O)(=O)C(F)(F)F)cc2O)cc(Cl)c1Cl	=	6.00
CCOC(=O)Cn1cc(-c2cc(O)c(C(=O)c3[nH]c(Cl)c(Cl)c3-n3c(C(=O)c4cc(Cl)c(-c5cn(CC(=O)OCC)nn5)cc4O)cc(Cl)c3Cl)cc2Cl)nn1	=	5.11
